Assay: Human pregnane X receptor (PXR) small molecule agonists, qHTS cell viability counter screen (AID 1346977); note: nearly all actives have a fitted effect of over 50% in size
Conditions: PXR-Luc HepG2 viability, CellTiter-Fluor, 24 h; series mostly up to 92.4 µM
Records with an inconclusive call do not appear. Activity calls are given as the source filed them. Calls come from the whole dose curve; as a rule, active = well fitted cell-killing curve with a large enough effect in the repeat runs; inconclusive = weak or mixed curves, or effect the other way; inactive = flat fitted curve, though single readings scatter.
Classes used: active, inactive

{"COMPOUND": "Cc1ccc(C)cc1", "CAT": "inactive"}
{"COMPOUND": "CC1(C)[C@@H](O)CC[C@]2(C)[C@H]3C(=O)C=C4[C@@H]5C[C@@](C)(C(=O)O)CC[C@]5(C)CC[C@@]4(C)[C@]3(C)CC[C@@H]12", "CAT": "inactive"}
{"COMPOUND": "O=C(O)c1cc(=O)c2ccccc2o1", "CAT": "inactive"}
{"COMPOUND": "C=C(C)c1cccc(C(=C)C)c1", "CAT": "inactive"}
{"COMPOUND": "Clc1nnc(Cl)c2ccccc12", "CAT": "inactive"}
{"COMPOUND": "CCCCCCCCCCCCCCCC[N+](C)(C)CC", "CAT": "active"}
{"COMPOUND": "O=C1C(c2[nH]c3ccc(S(=O)(=O)O)cc3c2O)=Nc2ccc(S(=O)(=O)O)cc21", "CAT": "inactive"}
{"COMPOUND": "Nc1nc(N)nc(-c2cc(Cl)ccc2Cl)n1", "CAT": "inactive"}
{"COMPOUND": "C=Cc1cccc(C)c1", "CAT": "inactive"}
{"COMPOUND": "Cc1c(C)c([N+](=O)[O-])c(C(C)(C)C)c([N+](=O)[O-])c1C", "CAT": "inactive"}
{"COMPOUND": "CCCCNS(=O)(=O)c1ccc(C)cc1", "CAT": "inactive"}
{"COMPOUND": "OC/C=C/CO", "CAT": "inactive"}
{"COMPOUND": "C=Cc1ccccc1C=C", "CAT": "inactive"}
{"COMPOUND": "CCCCCCC1CCCC(=O)O1 (stereo unspecified)", "CAT": "inactive"}
{"COMPOUND": "CC(C)(C)c1ccc(C(O)CCCN2CCC(C(O)(c3ccccc3)c3ccccc3)CC2)cc1 (stereo unspecified)", "CAT": "inactive"}
{"COMPOUND": "CC[C@H](C)COC(=O)/C=C/c1ccc(N=Cc2ccc(OC)cc2)cc1", "CAT": "inactive"}
{"COMPOUND": "CC(CCc1ccccc1)NCC(O)c1ccc(O)c(C(N)=O)c1 (stereo unspecified)", "CAT": "active"}
{"COMPOUND": "CC[N+](CC)(CC)CCOC(=O)C(C1CCCC1)C1CCCC1", "CAT": "inactive"}
{"COMPOUND": "CN(C)C(=O)COC(=O)Cc1ccc(OC(=O)c2ccc(N=C(N)N)cc2)cc1", "CAT": "inactive"}
{"COMPOUND": "Clc1ccnc(Cl)n1", "CAT": "inactive"}
{"COMPOUND": "O=C(O)c1ccc2cc(C(=O)O)ccc2c1", "CAT": "inactive"}
{"COMPOUND": "Cc1cc(C(C)(C)C)c(O)c(C)c1Cn1c(=O)n(Cc2c(C)cc(C(C)(C)C)c(O)c2C)c(=O)n(Cc2c(C)cc(C(C)(C)C)c(O)c2C)c1=O", "CAT": "inactive"}
{"COMPOUND": "Sc1nc2ccccc2s1", "CAT": "inactive"}
{"COMPOUND": "CN1CCN2c3ccccc3Cc3ccccc3C2C1 (stereo unspecified)", "CAT": "inactive"}
{"COMPOUND": "CC(C)=CCNc1ncnc2c1ncn2[C@@H]1O[C@H](CO)[C@@H](O)[C@H]1O", "CAT": "active"}
{"COMPOUND": "O=C(O)[C@H](O)[C@@H](O)[C@H](O[C@@H]1O[C@H](CO)[C@H](O)[C@H](O)[C@H]1O)[C@H](O)CO", "CAT": "inactive"}
{"COMPOUND": "CC(C)(c1cc(Br)c(OCC(Br)CBr)c(Br)c1)c1cc(Br)c(OCC(Br)CBr)c(Br)c1 (stereo unspecified)", "CAT": "inactive"}
{"COMPOUND": "CC(C)=CCC1=C(O)c2ccccc2C(=O)C1=O", "CAT": "active"}
{"COMPOUND": "CCCCC(CC)COC(=O)CCCCC(=O)OCc1ccccc1 (stereo unspecified)", "CAT": "inactive"}
{"COMPOUND": "O=[N+]([O-])c1ccc(O)cc1C(F)(F)F", "CAT": "active"}
{"COMPOUND": "COc1cc2nc(N3CCN(C(=O)c4ccco4)CC3)nc(N)c2cc1OC", "CAT": "active"}
{"COMPOUND": "Fc1ccc(C(c2ccc(F)cc2)N2CCNCC2)cc1", "CAT": "inactive"}
{"COMPOUND": "CCCc1ccc(OCC(=O)N2CCN(C(=O)COc3ccc(CCC)cc3OC)CC2)c(OC)c1", "CAT": "inactive"}
{"COMPOUND": "Cc1cc(C(C#N)c2ccc(Cl)cc2)c(Cl)cc1NC(=O)c1cc(I)cc(I)c1O (stereo unspecified)", "CAT": "active"}
{"COMPOUND": "Cc1cc(-n2nc3ccc(Cl)cc3n2)c(O)c(C(C)(C)C)c1", "CAT": "inactive"}
{"COMPOUND": "CC(=O)[C@H]1CC[C@H]2[C@@H]3CCC4=CC(=O)CC[C@]4(C)[C@H]3CC[C@]12C", "CAT": "inactive"}
